assay: Oral bioavailability in Sprague-Dawley rat at 5 mg/kg by LC/MS/MS analysis; assay type: ADME, organism-based; conditions: in vivo
resultType: bioavailability (%)
Form entry: value (%) — number only.

For `COc1c(Nc2ncc(Cl)c(N[C@H]3[C@@H](C(N)=O)[C@@H]4C=C[C@H]3C4)n2)ccc2c1CCC[C@H](N1CCN(CCO)CC1)C2` the molecule record lists bioavailability as 10

***
`COc1c(Nc2ncc(Cl)c(N[C@H]3[C@@H](C(N)=O)[C@@H]4C=C[C@H]3C4)n2)ccc2c1CCC[C@H](N1CCN(C)CC1)C2` yielded bioavailability of 11

====

Listed below: pIC50 values for each entry.
target: Cytochrome P450 2C9 (Homo sapiens)
Sequence (P11712 whole entry): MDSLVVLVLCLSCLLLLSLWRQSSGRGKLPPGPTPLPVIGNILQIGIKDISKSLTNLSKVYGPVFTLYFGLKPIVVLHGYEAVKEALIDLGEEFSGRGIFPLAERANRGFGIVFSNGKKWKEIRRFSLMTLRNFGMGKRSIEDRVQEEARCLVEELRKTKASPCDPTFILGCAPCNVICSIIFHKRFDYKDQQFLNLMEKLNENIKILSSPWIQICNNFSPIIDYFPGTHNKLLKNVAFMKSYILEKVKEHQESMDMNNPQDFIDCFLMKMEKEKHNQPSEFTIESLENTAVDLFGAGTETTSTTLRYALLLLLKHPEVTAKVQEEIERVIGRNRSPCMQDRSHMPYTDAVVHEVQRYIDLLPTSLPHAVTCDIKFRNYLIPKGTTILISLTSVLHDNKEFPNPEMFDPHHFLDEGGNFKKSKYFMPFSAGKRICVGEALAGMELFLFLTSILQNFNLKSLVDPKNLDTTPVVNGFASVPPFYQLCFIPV
pIC50: −log10 of the molar value.

Hey, Cytochrome P450 2C9 (Homo sapiens) data for CNC(=O)c1ccccc1Nc1nc(Nc2ccc3c(c2OC)CCC[C@H](N2CCN(CCO)CC2)C3)ncc1Cl [CEP-37440] : pIC50 came out at < 5.25

Further cases:
Entry COc1c(Nc2ncc(Cl)c(N[C@H]3[C@@H](C(N)=O)[C@@H]4C=C[C@H]3C4)n2)ccc2c1CCCC(N1CCN(C)CC1)C2 (single isomer, unassigned) ; assay system Cytochrome P450 2C9 (Homo sapiens); pIC50 recorded at < 5.00

Item: `COc1c(Nc2ncc(Cl)c(N[C@H]3[C@@H](C(N)=O)[C@@H]4C=C[C@H]3C4)n2)ccc2c1CC[C@@H](N1CCOCC1)CC2` | System: Cytochrome P450 2C9 (Homo sapiens) | pIC50: < 5.00

# pIC50 measured on Cytochrome P450 2C9 (Homo sapiens) for item `CNC(=O)c1ccccc1Nc1nc(Nc2ccc3c(c2OC)CCC[C@@H](N2CCN(CCO)CC2)C3)ncc1Cl` = < 5.25
